# EXPERIMENTAL SYSTEM: Gal4DBD/PPARαLBD (Homo sapiens)
# Construct: expressed in transfected cells; host or cells: COS-7 (monkey kidney fibroblasts)
# PROTOCOL DETAILS: Transient transfection of COS-7 cells, Gal4DBD/PPARαLBD transactivation, CAT reporter (II method)
# Assay type: cell-based
# APPLIED CONDITIONS: 100 μM, read-out: percentage activation of the CAT reporter gene compared to reference compound WY-14.643 2 μM taken as 100%
Kindly supply the reported activation at 100 µM values for the records listed here.
Give just the numeric value; % need not be written.

Request the reported activation at 100 µM associated with COC(=O)C(C)(C)Sc1ccc(OCCn2ccc3cc(OCc4ccccc4)ccc32)cc1
249

Look up activation at 100 µM for this compound: COC(=O)C(C)(C)Sc1cccc(OCc2ccc(-c3ccc([N+](=O)[O-])cc3)o2)c1
231

Item under review: COC(=O)C(C)(C)Sc1cccc(OCCc2ccc3ccccc3c2)c1 . Reported activation at 100 µM?
463

# activation at 100 µM lookup, item COC(=O)C(C)(C)Sc1ccc(OCCn2ccc3cc(OC)ccc32)cc1
255

What value of activation at 100 µM has been reported for the following compound? COC(=O)C(C)(C)Sc1cccc(OCCc2ccc(Cl)cc2Cl)c1
421

====

# EXPERIMENTAL SYSTEM: Gal4DBD/PPARαLBD (Homo sapiens, UniProt Q07869)
# Construct: expressed in transfected cells; host or cells: COS-7 (monkey kidney fibroblasts)
# Sequence (Q07869 239-466 limits assumed): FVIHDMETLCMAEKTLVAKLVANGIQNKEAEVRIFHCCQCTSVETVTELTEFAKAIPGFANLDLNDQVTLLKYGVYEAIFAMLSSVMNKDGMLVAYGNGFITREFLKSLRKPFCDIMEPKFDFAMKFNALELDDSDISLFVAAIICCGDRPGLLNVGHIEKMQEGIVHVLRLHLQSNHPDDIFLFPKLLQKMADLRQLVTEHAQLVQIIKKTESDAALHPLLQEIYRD
# PROTOCOL DETAILS: Transient transfection of COS-7 cells, Gal4DBD/PPARαLBD transactivation, CAT reporter (II method)
# Format: cell-based
# APPLIED CONDITIONS: 100 μM, read-out: percentage activation of the CAT reporter gene compared to reference compound WY-14.643 2 μM taken as 100%
MEASURED PROPERTY: activation at 100 µM (%)
Please respond with the number in % and leave the unit unwritten.

May I ask what activation at 100 µM has been recorded for CC(C)(Sc1ccc(OCCn2ccc3ccccc32)cc1)C(=O)O ?
311

Return reported activation at 100 µM; argument: COc1ccc2c(ccn2CCOc2ccc(SC(C)(C)C(=O)O)cc2)c1
239

What value of measured activation at 100 µM is listed for CC(C)(Sc1cccc(OCCc2ccc(Cl)cc2Cl)c1)C(=O)O ?
204

# input compound: CC(C)(Sc1ccc(OCCn2ccc3cc(OCc4ccccc4)ccc32)cc1)C(=O)O ; wanted: its activation at 100 µM
115

====

# EXPERIMENTAL SYSTEM: Gal4DBD/PPARαLBD (Homo sapiens, UniProt Q07869)
# Construct: expressed in transfected cells; host or cells: COS-7 (monkey kidney fibroblasts)
# Sequence (Q07869 239-466 limits assumed): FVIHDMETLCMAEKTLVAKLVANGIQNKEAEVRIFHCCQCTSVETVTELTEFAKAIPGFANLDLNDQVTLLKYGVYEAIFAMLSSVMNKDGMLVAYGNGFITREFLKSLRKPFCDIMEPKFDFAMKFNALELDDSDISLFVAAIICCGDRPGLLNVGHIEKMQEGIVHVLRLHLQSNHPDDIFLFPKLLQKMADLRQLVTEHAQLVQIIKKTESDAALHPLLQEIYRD
# PROTOCOL DETAILS: Transient transfection of COS-7 cells, Gal4DBD/PPARαLBD transactivation, CAT reporter (II method)
# Assay type: cell-based
# APPLIED CONDITIONS: 2 μM, read-out: percentage activation of the CAT reporter gene compared to reference compound WY-14.643 2 μM taken as 100%
MEASURED PROPERTY: activation at 2 µM
Don't forget the unit after the value.

Could you tell me which activation at 2 µM is on file for COC(=O)C(C)(C)Sc1cccc(OCCc2ccc3ccccc3c2)c1 ?
98.1%

Please look up its activation at 2 µM: COC(=O)C(C)(C)Sc1ccc(OCCn2ccc3cc(OCc4ccccc4)ccc32)cc1
139%

Item under review: COC(=O)C(C)(C)Sc1cccc(OCc2ccc(-c3ccc([N+](=O)[O-])cc3)o2)c1 . Reported activation at 2 µM?
85.7%

For COC(=O)C(C)(C)Sc1cccc(OCCc2ccc(Cl)cc2Cl)c1 , what is its reported activation at 2 µM?
113%

Can you look up the measured activation at 2 µM of CC(C)(Sc1cccc(OCCc2ccc(Cl)cc2Cl)c1)C(=O)O for me?
132%

Data request, read-out activation at 2 µM, for CC(C)(Sc1ccc(OCCn2ccc3cc(OCc4ccccc4)ccc32)cc1)C(=O)O
150%

Record request: activation at 2 µM value, item CC(C)(Sc1ccc(OCCn2ccc3ccccc32)cc1)C(=O)O
105%

Field request: activation at 2 µM | item: COc1ccc2c(ccn2CCOc2ccc(SC(C)(C)C(=O)O)cc2)c1
77.2%

Sample COC(=O)C(C)(C)Sc1ccc(OCCn2ccc3cc(OC)ccc32)cc1 — what was its activation at 2 µM?
98.6%
